src = patent US9732087B2

biological target: UniProt:Q9H3N8; test: Binding assay on recombinant human histamine H4 receptor ([3H]histamine competition, SK-N-MC cell membranes); details: membranes harvested with cell harvester; [3H]histamine 10 nM; average of results; read-out: Cell Harvester Ki
Sequence (Q9H3N8 whole entry): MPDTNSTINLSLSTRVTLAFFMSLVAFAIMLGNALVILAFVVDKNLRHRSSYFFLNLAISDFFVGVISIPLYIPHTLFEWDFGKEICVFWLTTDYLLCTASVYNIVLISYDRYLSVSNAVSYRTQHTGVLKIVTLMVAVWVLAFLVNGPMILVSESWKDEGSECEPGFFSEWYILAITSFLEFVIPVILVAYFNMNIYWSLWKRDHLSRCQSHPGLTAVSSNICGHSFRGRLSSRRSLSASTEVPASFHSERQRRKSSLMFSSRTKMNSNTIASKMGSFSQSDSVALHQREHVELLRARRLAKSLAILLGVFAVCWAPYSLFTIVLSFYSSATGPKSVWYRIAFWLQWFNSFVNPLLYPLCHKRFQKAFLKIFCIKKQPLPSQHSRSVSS
ENDPOINT LABEL: Ki (nM)
Numbers only, in nM.

{"COMPOUND": "COCCNc1nccc(N2CCNCC2)n1", "UNIT ABBREV": "nM", "Ki": 376}
{"COMPOUND": "CNC1CN(c2ccnc(NC3C[C@H]4C[C@@H](C3C)C4(C)C)c2)C1 (some centres unmarked)", "UNIT ABBREV": "nM", "Ki": 42.3}
{"COMPOUND": "CN[C@@H]1CCN(c2cnnc(NCC3CCC4CC3C4(C)C)c2)C1 (some centres unmarked)", "UNIT ABBREV": "nM", "Ki": 293}

Let us examine a further case.
// query Recorded Ki for c1ccc(Nc2cc(N3CCNCC3)ccn2)cc1 with UniProt:Q9H3N8, please?
// result 275
